System: Noggin (protein binding on small-molecule microarray)
Test: small molecules binding Noggin protein – biochemical, 635/667 nm fluorescence, primary screen (AID 1095);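 also: score merges 667 nm feature fluorescence with signal to noise over triplicate slides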
Settings: 635 nm fluorescence, higher = more signal
measured.quantity: composite z-score

>>> numeric_result("CC(C)c1ccc(NN2C(C(O)c3cccs3)C=CC3C(=O)N(c4ccccc4)C(=O)C32)cc1 (configuration not stated)")
-0.0307
>>> numeric_result("CCC[C@@H]1C[C@@]1(CCC)[C@@H](NC(=O)c1cccs1)c1ccc(Cl)cc1")
-1.87
>>> numeric_result("C=CCN1C(=O)[C@@]2(O[C@@H](CCO)[C@H]([Si](C)(C)c3ccc(OC)cc3)[C@H]2C)c2cc(NC(=O)[C@H](C)O)ccc21")
0.959
>>> numeric_result("COC(=O)C(CC#Cc1ccc2c(c1)[C@]1(C(=O)N2)[C@H](C(=O)N2CCc3cc(OC)c(OC)cc3C2)[C@H]2C(=O)O[C@H](c3ccccc3)[C@H](c3ccccc3)N2[C@@H]1c1ccc(O)cc1)C(=O)OC")
1.88
>>> numeric_result("COC(=O)[C@@]1(Cc2ccc(F)cc2)[C@H]2c3cc(C(=O)N4CCCC4)n(Cc4ccccc4)c3C[C@H]2CN1C(=O)c1ccccc1")
-0.486
>>> numeric_result("CCOC(=O)C1=CCC(c2cccc(Cl)c2)O1 (configuration not stated)")
-0.0785
>>> numeric_result("O=C1N(Cc2ccccc2)c2ccccc2[C@H]2OC(c3ccc(OCCCO)cc3)=N[C@@]12CCS(=O)(=O)c1ccccc1")
1.75

----------
Recorded measurements of z-score, one per entry
Experiment: compound effects on multiple myeloma cell viability – MM1S, calcein-AM fluorescence, 48 h, basal, profiling panel (AID 1165);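 also: viability of MM1S multiple myeloma cells under basal unstimulated conditions; test concentration not given here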
Details: higher = more signal
measured.quantity: z-score

>>> numeric_result("CCC[C@@H]1C[C@@]1(CCC)[C@@H](NC(=O)c1ccco1)c1ccc(Cl)cc1")
-1.6
>>> numeric_result("CC(C)CCC[C@@H](C)[C@H]1CC[C@@]2(C)C3=C(CC[C@]12C)[C@@]1(C)CC[C@H](OC(=O)C(C)(C)C)C(C)(C)C1CC3 (stereo not given in full)")
0.933
>>> numeric_result("COC(=O)c1ccc(OC)c(/C=C\\CC(CCc2ccccc2)OC(C)=O)c1 (stereo not given)")
-1.35
>>> numeric_result("COCCCNC(=O)[C@@]1(C)c2ccccc2C(=O)N(c2ccc(C)cn2)[C@H]1c1ccc(CO)cc1")
-0.0048
>>> numeric_result("O=C1OCCC=C[C@H]2OC34C=CCN(Cn5nnc6ccccc65)C(=O)[C@H]3N(CCCCCO)C(=O)[C@@H]4C12 (stereo not given in full)")
1.75
>>> numeric_result("O=C1CSC(c2cccc([N+](=O)[O-])c2)N1c1ccccc1 (stereo not given)")
1.31
>>> numeric_result("COc1ccc(CCNC(=O)[C@@H]2c3ccccc3C(=O)N(Cc3ccccc3)[C@H]2c2ccc(CO)cc2)cc1")
-0.913
>>> numeric_result("COCCOC(=O)N1C(=O)[C@@]2(c3cc(C#Cc4ccc(OC)cc4)ccc31)[C@H](C(=O)N1CCc3cc(OC)c(OC)cc3C1)[C@H]1C(=O)O[C@H](c3ccccc3)[C@H](c3ccccc3)N1[C@@H]2c1ccc(OCCO)cc1")
-0.0142
>>> numeric_result("O=C1C2C=CC(C(O)c3cccc4ccccc34)N(Nc3ccccc3)C2C(=O)N1c1ccccc1 (stereo not given)")
-0.624
>>> numeric_result("C=C(C)[C@@H]1CC=C(C(O)C2C=CC3C(=O)N(C4CCCCC4)C(=O)C3N2Nc2ccc(OC)cc2)CC1 (stereo not given in full)")
0.0801
>>> numeric_result("C=CC[C@@]1(C(=O)NCC(O)CO)N=C(c2ccc(OCCCO)cc2)O[C@@H]1c1ccccc1 (stereo not given in full)")
0.281
>>> numeric_result("[N-]=[N+]=Nc1ccccc1[C@@H]1OC(c2ccc(OCCCO)cc2)=N[C@]1(CCS(=O)(=O)c1ccccc1)C(=O)NCc1ccccc1")
-0.723
>>> numeric_result("[N-]=[N+]=NCc1ccccc1C[C@]1(C(=O)NCCN2CCOCC2)COC(c2ccc(OCCCO)cc2)=N1")
0.689
>>> numeric_result("[N-]=[N+]=NCc1ccccc1C[C@@]1(C(=O)NCCN2CCOCC2)N=C(c2ccc(OCCCO)cc2)O[C@@H]1c1ccccc1CN=[N+]=[N-]")
-2.59
>>> numeric_result("O=C1O[C@@H](c2ccccc2)[C@@H](c2ccccc2)N2[C@@H](c3ccc(O)cc3)[C@]3(C(=O)Nc4ccc(C#CC5=CCCCC5)cc43)[C@@H](C(=O)Nc3nc4ccccc4s3)[C@H]12")
-0.575

----------
Assay: inhibition of PAO1 biofilm formation – strain PAO1, LB-PBS medium, absorbance 600 nm, primary screen (AID 1176); also: test concentration not given here
Settings: P. aeruginosa PAO1 growth/biofilm, A600, 12 h; higher = more signal
measured.quantity: z-score

>>> numeric_result("Cc1ccc(F)cc1S(=O)(=O)N[C@@H]1CCN(C(=O)c2ccc(OC(C)C)cc2)C1")
-0.165
>>> numeric_result("O=C1C[C@@](C(=O)NCc2ccccc2)(c2ccc([N+](=O)[O-])cc2)[C@@H](c2ccc(CO)cc2I)N1C1CCCCC1")
-0.301
>>> numeric_result("COC(=O)C(CC#Cc1ccc2c(c1)[C@]1(C(=O)N2)[C@H](c2ccc(OCCO)cc2)N2[C@H](c3ccccc3)[C@H](c3ccccc3)OC(=O)[C@H]2[C@@H]1C(=O)O)C(=O)OC")
2.28
>>> numeric_result("CCOc1cc(C(O)C2C=CC3C(=O)NC(=O)C3N2Nc2ccccn2)ccc1O (centres undefined)")
0.599

----------
Recorded measurements of z-score, one per entry
Molecular target: NADPH oxidase 5 (Homo sapiens)
Test: compounds shifting NOX5 Amplex Red fluorescence – cell-based, HEK293-NOX5, NOX inhibitor project, primary screen (AID 1161)
Settings: HEK293-NOX5, ionomycin, 45 min, higher = more signal
measured.quantity: z-score

>>> result("CC(C)c1ccc(NN2C(C(O)c3cccs3)C=CC3C(=O)N(c4ccccc4)C(=O)C32)cc1 (centres undefined)")
-2.9
>>> result("O=c1c2ccc(Br)cc2nc(-c2ccccc2)n1Cc1cccc(O)c1")
-1.99
>>> result("COc1ccc(C(=O)Nc2ccc3c(c2)[C@]2(O[C@@H](CCO)[C@H]([Si](C)(C)c4ccc(OC)cc4)[C@H]2C)C(=O)N3Cc2ccccc2)cc1")
0.304
>>> result("CC(C)C[C@@H]1NC(=O)[C@@H]2C[C@H](C(=O)NCc3ccc(F)cc3)[C@H](c3ccc(O)cc3)N2C1=O")
1.18

----------
Assay: growth of efflux-deficient E. coli DRC39 – strain DRC39, OD650, 24 h, E. coli filamentation inducers, primary screen (AID 1178);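 also: growth measured as culture turbidity by optical density at 650 nm; test concentration not given here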
Conditions: E. coli DRC39 acrAB, higher = more signal, called active from +8 up or from −8 down
Recorded measurements of z-score, one per entry
measured.quantity: z-score

>>> numeric_result("C=CC[C@]1(C(=O)NCC(O)CO)N=C(c2ccc(OCCCO)cc2)O[C@H]1c1ccccc1N=[N+]=[N-] (some centres not stated)")
0.769
>>> numeric_result("C#CCOC(=O)N[C@H](C=CCCCC)c1ccccc1")
-0.467
>>> numeric_result("NC(=O)NCC#Cc1ccc2c(c1)[C@]1(C(=O)N2)[C@H](c2ccc(O)cc2)N2[C@H](c3ccccc3)[C@H](c3ccccc3)OC(=O)[C@H]2[C@@H]1C(=O)NC[C@H](O)c1ccccc1")
0.203
>>> numeric_result("COC(=O)[C@@]1(Cc2ccccc2)[C@H]2c3cc(C(=O)N(C)C)n(Cc4ccc(O)c(OC)c4)c3C[C@H]2CN1C(=O)c1ccccc1")
-0.846
>>> numeric_result("COC(=O)[C@@]1(Cc2ccccc2)[C@H]2c3cc(C(=O)N4CCCC4)n(Cc4ccc(OC(F)(F)F)cc4)c3C[C@H]2CN1C(=O)c1ccccc1")
-1.22
>>> numeric_result("COCCOC(=O)N1C(=O)[C@@]2(c3cc(C#Cc4ccc(OC)cc4)ccc31)[C@H](c1ccc(OCCO)cc1)N1[C@H](c3ccccc3)[C@H](c3ccccc3)OC(=O)[C@H]1[C@@H]2C(N)=O")
0.721
>>> numeric_result("CN(C)CCCC[C@@H]1NC(=O)[C@H]2C[C@@H](C(=O)NCCCCCCNC(=O)CS)[C@@H](c3ccc(O)cc3)N2C1=O")
0.0961
>>> numeric_result("COC(=O)c1ccc(OC)c(/C=C\\CC(CCc2ccccc2)OC(C)=O)c1 (configuration not stated)")
0.0214
>>> numeric_result("COCCOC(=O)N1C(=O)[C@@]2(c3cc(C#CC4(O)CCCCCC4)ccc31)[C@H](C(=O)N1CCc3cc(OC)c(OC)cc3C1)[C@H]1C(=O)O[C@H](c3ccccc3)[C@H](c3ccccc3)N1[C@@H]2c1ccccc1OCCO")
-0.0554
>>> numeric_result("O=C1c2ccccc2C(=O)C2CC([C@H]3Oc4ccccc4S(=O)(=O)N4CCC[C@@H]34)=CCC12 (some centres not stated)")
1.96
>>> numeric_result("Cc1ccc(S[C@]2(C(=O)NCC(C)C)CC(=O)N(C3CCCCC3)[C@@H]2c2ccc(CO)cc2I)cc1")
0.12
>>> numeric_result("CCCN1C(=O)[C@@]2(Cc3ccccc3)N=C(c3ccc(OCCCO)cc3)O[C@H]2c2ccccc21")
0.248
>>> numeric_result("COCCOC(=O)N1C(=O)[C@@]2(c3cc(C#CCC(C(=O)OC)C(=O)OC)ccc31)[C@H](C(=O)N1CCCCCCC1)[C@H]1C(=O)O[C@H](c3ccccc3)[C@H](c3ccccc3)N1[C@@H]2c1ccc(O)cc1")
-0.543
>>> numeric_result("C=C[C@H](C)[C@H](OC(=O)Nc1ccc(SC)cc1)c1ccc(O)c2ccccc12")
-1.46
>>> numeric_result("COc1cc(C(O)C2C=CC3C(=O)NC(=O)C3N2Nc2ccc(Cl)cc2Cl)cc(OC)c1OC (configuration not stated)")
-0.305
>>> numeric_result("COCCOC(=O)N1C(=O)[C@@]2(c3cc(C#Cc4ccc(OC)cc4)ccc31)[C@H](C(=O)N1CCc3cc(OC)c(OC)cc3C1)[C@H]1C(=O)O[C@H](c3ccccc3)[C@H](c3ccccc3)N1[C@@H]2c1ccc(OCCO)cc1")
-0.997
>>> numeric_result("NC(=O)NCC#Cc1ccc2c(c1)[C@]1(C(=O)N2)[C@H](c2ccc(OCCO)cc2)N2[C@H](c3ccccc3)[C@H](c3ccccc3)OC(=O)[C@H]2[C@@H]1C(=O)N1CCN(c2ncccn2)CC1")
0.665
>>> numeric_result("COc1ccc([Si](C)(C)[C@H]2[C@H](CC(=O)N3CCC[C@H]3CO)O[C@@]3(C(=O)N(Cc4ccc(N5C(=O)c6cccc7cccc5c67)cc4)c4ccccc43)[C@@H]2C)cc1")
-0.788
>>> numeric_result("CC(C)(C)OC(=O)CC[C@@]1(C(=O)N2CCCCC2)N=C(c2ccc(OCCCO)cc2)O[C@@H]1c1ccccc1N=[N+]=[N-]")
0.264
>>> numeric_result("CN1C(=O)C2C=CC(C(O)C3CCCCC3)N(N(c3ccccc3)c3ccccc3)C2C1=O (configuration not stated)")
-0.881
>>> numeric_result("CC(C)NC(=O)[C@@H]1c2ccccc2C(=O)N(Cc2cc(C(F)(F)F)cc(C(F)(F)F)c2)[C@H]1c1ccc(CO)cc1")
1.17
>>> numeric_result("CN1C(=O)C2C=CC(C(O)c3cccc4ccccc34)N(NC(=O)OC(C)(C)C)C2C1=O (configuration not stated)")
-0.555
>>> numeric_result("COCCCNC(=O)[C@@H]1c2ccccc2C(=O)N(c2ccc(C)cn2)[C@H]1c1ccc(CO)cc1")
-0.541
>>> numeric_result("CCOC(=O)C1=CCC(c2cccc(Cl)c2)O1 (configuration not stated)")
0.484
>>> numeric_result("O=C1O[C@H](c2ccccc2)[C@H](c2ccccc2)N2[C@H]1[C@@H](C(=O)N1CCN(c3ncccn3)CC1)[C@]1(C(=O)Nc3ccc(C#CCCO)cc31)[C@H]2c1ccc(OCCO)cc1")
0.275
>>> numeric_result("COc1ccc([Si](C)(C)[C@H]2[C@H](CCn3cc(CCO)nn3)O[C@@]3(C(=O)N(Cc4cccc(N5C(=O)c6cccc7cccc5c67)c4)c4ccccc43)[C@@H]2C)cc1")
2.38
>>> numeric_result("CC1(C)[C@@H]2CC(C(O)C3C=CC4C(=O)N(c5ccccc5)C(=O)C4N3Nc3ccccc3F)=C[C@@H]1C2 (some centres not stated)")
0.018
